target: UniProt:O60885; test: TR-FRET bromodomain binding assay; details: His-tagged tandem bromodomain, Alexa647-labeled probe; Ki calculated from IC50s, probe Kd and probe concentration
The entries below come with measured Ki values attached.

compound: CCOC(=O)NS(=O)(=O)N1CCOc2cc(=O)n(C)cc2-c2cc(NS(=O)(=O)CC)ccc2Oc2ccc(Cl)cc2C1 [Example B-15]
study_target: UniProt:O60885
Ki (nM): 1
//
compound: CCS(=O)(=O)Nc1ccc2c(c1)-c1cn(C)c(=O)cc1OCCN(S(C)(=O)=O)Cc1cc(Cl)ccc1O2 [Example B-6]
study_target: UniProt:O60885
Ki (nM): 1.57
//
compound: CCS(=O)(=O)Nc1ccc2c(c1)-c1cn(C)c(=O)cc1OCCN(CC1CC1)Cc1cc(Cl)ccc1O2 [Example B-12]
study_target: UniProt:O60885
Ki (nM): 5.1
//
compound: CCS(=O)(=O)Nc1ccc2c(c1)-c1cn(C)c(=O)cc1OCCC/C=C/c1cc(Cl)ccc1O2 [Example A-16]
study_target: UniProt:O60885
Ki (nM): 1.66

---

// values below are reported log10 of EC50
System: breast cancer cell line MX-1
Test: MX-1 cell line proliferation assay (3-day, Cell Titer Glo)
Assay type: cell-based
Settings: Homo sapiens, MX1, MX-1 cells, 72 hours, read-out: Cellular proliferation: EC50
Procedure: The impact of compounds of the Examples on cancer cell proliferation was determined using the breast cancer cell line MX-1 (ATCC) in a 3-day proliferation assay and the data are reported in Table 1. […] Luminescence readings from the Cell Titer Glo assay were normalized to the DMSO treated cells and analyzed using the GraphPad Prism software with sigmoidal curve fitting to obtain EC50s.
observation_type: log10 of EC50 (log10 of the value in nM)

record_smiles: CCS(=O)(=O)Nc1ccc2c(c1)-c1cn(C)c(=O)cc1OCCCc1cc(F)cc(F)c1O2
study_target: breast cancer cell line MX-1
observation_type: log10 of EC50
value: 0.98
--
record_smiles: CCS(=O)(=O)Nc1ccc2c(c1)-c1cn(C)c(=O)cc1OCCCCCc1cc(Cl)ccc1O2
study_target: breast cancer cell line MX-1
observation_type: log10 of EC50
value: 1.21
--
record_smiles: COC(=O)c1cnc2c(c1)-c1cn(C)c(=O)cc1OCCCCc1cc(Cl)ccc1O2
study_target: breast cancer cell line MX-1
observation_type: log10 of EC50
value: 2.48
--
record_smiles: CCS(=O)(=O)Nc1ccc2c(c1)-c1cn(C)c(=O)cc1OCC/C=C/c1cc(Cl)ccc1O2
study_target: breast cancer cell line MX-1
observation_type: log10 of EC50
value: 0.95
--
record_smiles: CCS(=O)(=O)Nc1ccc2c(c1)-c1nn(C)c(=O)cc1OCCCCc1cc(F)cc(F)c1O2
study_target: breast cancer cell line MX-1
observation_type: log10 of EC50
value: 1.26
--
record_smiles: CCS(=O)(=O)Nc1ccc2c(c1)-c1cn(C)c(=O)cc1OCCN(C(C)=O)Cc1cc(Cl)ccc1O2
study_target: breast cancer cell line MX-1
observation_type: log10 of EC50
value: 1.66
--
record_smiles: CCS(=O)(=O)c1ccc2c(c1)-c1cn(C)c(=O)cc1OCCCc1cc(Cl)ccc1O2
study_target: breast cancer cell line MX-1
observation_type: log10 of EC50
value: 1.49

---

biological target: BRD4 (BDI-BDII_K57-K550) (Homo sapiens, UniProt O60885); experiment: TR-FRET bromodomain binding assay; settings: His-tagged tandem bromodomain, Alexa647-labeled probe; Ki calculated from IC50s, probe Kd and probe concentration
pKi: −log10 of the molar value.

molecule: CCS(=O)(=O)Nc1ccc2c(c1)-c1cn(C)c(=O)cc1OCCNCc1cc(Cl)ccc1O2
pKi: 8.02

molecule: CCS(=O)(=O)Nc1ccc2c(c1)-c1cn(C)c(=O)cc1OCCCCc1ccc(Cl)cc1O2
pKi: 9.12

molecule: CCOC(=O)c1ccc2c(c1)-c1cn(C)c(=O)cc1OCCOCc1cc(Cl)ccc1O2 [Example B-17c]
pKi: 7.97

molecule: CCS(=O)(=O)Nc1ccc2c(c1)-c1cn(C)c(=O)cc1OCCCCc1ccncc1O2
pKi: 8.70

molecule: COC(=O)c1cnc2c(c1)-c1cn(C)c(=O)cc1OCCCCc1cc(Cl)ccc1O2
pKi: 7.61

molecule: Cn1cc2c(cc1=O)OCCCCc1cc(C(F)(F)F)ccc1Oc1ccc(NS(C)(=O)=O)cc1-2
pKi: 8.76

molecule: Cn1cc2c(cc1=O)OCCCCc1cc(F)cc(F)c1Oc1ccc(S(=O)(=O)C3CC3)cc1-2
pKi: 9.06

molecule: CCOC(=O)N1CCOc2cc(=O)n(C)cc2-c2cc(NS(=O)(=O)CC)ccc2Oc2ccc(Cl)cc2C1
pKi: 9.01

molecule: Cn1cc2c(cc1=O)OCCOCc1cc(Cl)ccc1Oc1ccc(CS(C)(=O)=O)cc1-2
pKi: 8.11

molecule: CCS(=O)(=O)Nc1ccc2c(c1)-c1cn(C)c(=O)cc1OCC/C=C/Cc1cc(Cl)ccc1O2
pKi: 8.51

molecule: CC(=O)Nc1ccc2c(c1)-c1cn(C)c(=O)cc1OCCCc1cc(Cl)ccc1O2
pKi: 8.27

molecule: CCS(=O)(=O)Nc1ccc2c(c1)-c1cn(C)c(=O)cc1OCCN(C(=O)OC(C)(C)C)Cc1cc(Cl)ccc1O2
pKi: 8.91

---

tested on: breast cancer cell line MX-1; test: MX-1 cell line proliferation assay (3-day, Cell Titer Glo); type: cell-based; details: Homo sapiens, MX1, MX-1 cells, 72 hours, read-out: Cellular proliferation: EC50
Could you mark each record Condition met if its EC50 falls strictly under 8 nM, and Condition not met if it equals or exceeds it?

compound: Cn1cc2c(cc1=O)OCCCCc1cc(Cl)ccc1Oc1ncc(C(=O)O)cc1-2 [Example A-38]
study_target: breast cancer cell line MX-1
assigned_class: Condition not met

compound: CCS(=O)(=O)c1ccc2c(c1)-c1cn(C)c(=O)cc1OCCCCc1ccc(Cl)cc1O2 [Example A-25]
study_target: breast cancer cell line MX-1
assigned_class: Condition not met

compound: CC(=O)Nc1ccc2c(c1)-c1cn(C)c(=O)cc1OCCCc1cc(Cl)ccc1O2 [Example A-11]
study_target: breast cancer cell line MX-1
assigned_class: Condition not met

compound: CCOC(=O)NS(=O)(=O)N1CCOc2cc(=O)n(C)cc2-c2cc(NS(=O)(=O)CC)ccc2Oc2ccc(Cl)cc2C1 [Example B-15]
study_target: breast cancer cell line MX-1
assigned_class: Condition not met

compound: CCS(=O)(=O)Nc1ccc2c(c1)-c1cn(C)c(=O)cc1OCCCCc1cc(F)c(F)cc1O2 [Example A-48]
study_target: breast cancer cell line MX-1
assigned_class: Condition met

compound: CCS(=O)(=O)c1ccc2c(c1)-c1cn(C)c(=O)cc1OCCCc1ccccc1O2 [Example A-1]
study_target: breast cancer cell line MX-1
assigned_class: Condition met

---

Entries and their pEC50 values follow.
Tested on: breast cancer cell line MX-1
Experiment: MX-1 cell line proliferation assay (3-day, Cell Titer Glo)
Type: cell-based
Conditions: Homo sapiens, MX1, MX-1 cells, 72 hours, read-out: Cellular proliferation: EC50
Protocol: The impact of compounds of the Examples on cancer cell proliferation was determined using the breast cancer cell line MX-1 (ATCC) in a 3-day proliferation assay and the data are reported in Table 1. […] Luminescence readings from the Cell Titer Glo assay were normalized to the DMSO treated cells and analyzed using the GraphPad Prism software with sigmoidal curve fitting to obtain EC50s.
pEC50: −log10 of the molar value.

compound: Cn1cc2c(cc1=O)OCCNC(=O)c1cc(Cl)ccc1Oc1ccc(N)cc1-2 [Example B-3]
value_modifier: <
pEC50: 6.00
--
compound: CCS(=O)(=O)Nc1ccc2c(c1)-c1cn(C)c(=O)cc1OCCNCc1cc(Cl)ccc1O2 [Example B-11]
value_modifier: =
pEC50: 7.60
--
compound: CCS(=O)(=O)Nc1ccc2c(c1)-c1cn(C)c(=O)cc1OC(C)CCCc1cc(Cl)ccc1O2 (centres unmarked) [Example A-17]
value_modifier: =
pEC50: 8.11
--
compound: CCS(=O)(=O)c1cnc2c(c1)-c1cn(C)c(=O)cc1OCCCCc1cc(Cl)ccc1O2 [Example A-34]
value_modifier: =
pEC50: 7.48
--
compound: CCS(=O)(=O)Nc1ccc2c(c1)-c1cn(C)c(=O)cc1OCCN(S(C)(=O)=O)Cc1cc(Cl)ccc1O2 [Example B-6]
value_modifier: =
pEC50: 7.77

---

System: breast cancer cell line MX-1
Assay: MX-1 cell line proliferation assay (3-day, Cell Titer Glo)
Format: cell-based
Conditions: Homo sapiens, MX1, MX-1 cells, 72 hours, read-out: Cellular proliferation: EC50
Experimental: The impact of compounds of the Examples on cancer cell proliferation was determined using the breast cancer cell line MX-1 (ATCC) in a 3-day proliferation assay and the data are reported in Table 1. […] Luminescence readings from the Cell Titer Glo assay were normalized to the DMSO treated cells and analyzed using the GraphPad Prism software with sigmoidal curve fitting to obtain EC50s.
Below: a set of entries, each annotated with reported EC50.

record_smiles: Cn1cc2c(cc1=O)OCCCCc1cc(Cl)ccc1Oc1ccc(CS(C)(=O)=O)cc1-2
EC50: 19.2 nM

record_smiles: Cn1cc2c(cc1=O)OCCCCc1ccncc1Oc1ccc(N)cc1-2
EC50: > 1000 nM

record_smiles: CCS(=O)(=O)Nc1ccc2c(c1)-c1cn(C)c(=O)cc1OCCN(S(=O)(=O)NC(C)=O)Cc1cc(Cl)ccc1O2
EC50: > 1000 nM
